Origin of measurements: ChEMBL document CHEMBL1145273

biological target: Vascular endothelial growth factor receptor 1 (Homo sapiens) (UniProt P17948); test: Inhibition of Vascular endothelial growth factor receptor 1 mediated [gamma-32P]-ATP incorporation at 10 ug/mL
Sequence (P17948 whole entry): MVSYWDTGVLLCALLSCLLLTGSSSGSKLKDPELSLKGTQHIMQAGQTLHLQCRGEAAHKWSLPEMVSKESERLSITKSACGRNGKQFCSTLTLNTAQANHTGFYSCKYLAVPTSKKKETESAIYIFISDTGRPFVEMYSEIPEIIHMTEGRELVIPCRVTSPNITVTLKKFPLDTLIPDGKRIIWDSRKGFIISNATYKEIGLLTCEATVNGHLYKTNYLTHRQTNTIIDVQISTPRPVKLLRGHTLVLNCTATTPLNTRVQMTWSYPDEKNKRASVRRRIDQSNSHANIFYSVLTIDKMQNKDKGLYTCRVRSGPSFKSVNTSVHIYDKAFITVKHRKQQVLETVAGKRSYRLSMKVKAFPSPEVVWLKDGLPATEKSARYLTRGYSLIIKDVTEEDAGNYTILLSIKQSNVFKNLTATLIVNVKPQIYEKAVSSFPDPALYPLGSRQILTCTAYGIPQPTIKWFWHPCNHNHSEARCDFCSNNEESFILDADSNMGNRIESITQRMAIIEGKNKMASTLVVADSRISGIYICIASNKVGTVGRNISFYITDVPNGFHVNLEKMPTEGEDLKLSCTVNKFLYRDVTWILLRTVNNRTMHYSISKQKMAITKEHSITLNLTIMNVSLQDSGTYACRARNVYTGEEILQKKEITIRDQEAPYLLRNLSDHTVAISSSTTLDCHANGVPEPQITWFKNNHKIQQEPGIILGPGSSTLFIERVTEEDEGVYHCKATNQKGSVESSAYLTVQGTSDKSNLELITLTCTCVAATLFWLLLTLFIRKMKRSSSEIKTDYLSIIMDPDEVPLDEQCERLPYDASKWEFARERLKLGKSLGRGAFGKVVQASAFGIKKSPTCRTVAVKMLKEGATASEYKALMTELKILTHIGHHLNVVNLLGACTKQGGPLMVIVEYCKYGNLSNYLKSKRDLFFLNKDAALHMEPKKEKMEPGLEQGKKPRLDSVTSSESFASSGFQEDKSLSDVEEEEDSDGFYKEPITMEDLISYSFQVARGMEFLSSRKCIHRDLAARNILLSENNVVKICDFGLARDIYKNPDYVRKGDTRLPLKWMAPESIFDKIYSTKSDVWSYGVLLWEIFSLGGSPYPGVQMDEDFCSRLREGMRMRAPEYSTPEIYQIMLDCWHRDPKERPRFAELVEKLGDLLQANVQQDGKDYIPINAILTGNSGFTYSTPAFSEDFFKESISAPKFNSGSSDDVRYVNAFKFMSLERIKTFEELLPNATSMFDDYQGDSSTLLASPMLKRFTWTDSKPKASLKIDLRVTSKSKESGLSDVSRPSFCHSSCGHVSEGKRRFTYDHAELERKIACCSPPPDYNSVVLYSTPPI
quantity.name: inhibition

The following molecules have reported results that may help.
molecule_smiles=O=C1NCc2c1c1c3ccc(O)cc3[nH]c1c1[nH]c3ccccc3c21 reported=80%
molecule_smiles=O=C1NC(=O)c2c1c1c3ccccc3[nH]c1c1[nH]c3cc(O)c(O)cc3c21 reported="< 50%"
molecule_smiles=O=C1NC(=O)C(c2c[nH]c3ccccc23)=C1c1c[nH]c2ccccc12 reported="< 50%"

Go through the items and report each one's inhibition.
1. COC(=O)c1[nH]c(C(=O)OC)c(-c2c[nH]c3ccccc23)c1-c1c[nH]c2ccccc12
2. COC(=O)c1[nH]c(C(=O)OC)c(-c2c[nH]c3ccc(O)cc23)c1-c1c[nH]c2ccccc12

["< 50%", "< 50%"]

====

target: UniProt:P17948; assay: Inhibition of Vascular endothelial growth factor receptor 1 mediated [gamma-32P]-ATP incorporation at 1 ug/mL
Provide the reported inhibition of each item.

molecule_smiles=COC(=O)c1[nH]c(C(=O)OC)c(-c2c[nH]c3ccc(O)cc23)c1-c1c[nH]c2ccccc12 reported=50%

Go through the items and report each one's inhibition.
1. O=C1NCc2c1c1c3ccc(O)cc3[nH]c1c1[nH]c3ccccc3c21
2. COC(=O)c1[nH]c(C(=O)OC)c(-c2c[nH]c3ccccc23)c1-c1c[nH]c2ccccc12
3. O=C1NC(=O)C(c2c[nH]c3ccccc23)=C1c1c[nH]c2ccccc12
4. O=C1NC(=O)c2c1c1c3ccccc3[nH]c1c1[nH]c3cc(O)c(O)cc3c21

1. < 50%
2. < 50%
3. < 50%
4. < 50%

====

Provide the reported inhibition of each item.
molecular target: Proto-oncogene tyrosine-protein kinase Src (Homo sapiens) (UniProt P12931); assay: Inhibition of protein tyrosine kinase mediated [gamma-32P]-ATP incorporation at 1 ug/mL in src-transformed NIH3T3
Sequence (P12931 2-536 limits assumed): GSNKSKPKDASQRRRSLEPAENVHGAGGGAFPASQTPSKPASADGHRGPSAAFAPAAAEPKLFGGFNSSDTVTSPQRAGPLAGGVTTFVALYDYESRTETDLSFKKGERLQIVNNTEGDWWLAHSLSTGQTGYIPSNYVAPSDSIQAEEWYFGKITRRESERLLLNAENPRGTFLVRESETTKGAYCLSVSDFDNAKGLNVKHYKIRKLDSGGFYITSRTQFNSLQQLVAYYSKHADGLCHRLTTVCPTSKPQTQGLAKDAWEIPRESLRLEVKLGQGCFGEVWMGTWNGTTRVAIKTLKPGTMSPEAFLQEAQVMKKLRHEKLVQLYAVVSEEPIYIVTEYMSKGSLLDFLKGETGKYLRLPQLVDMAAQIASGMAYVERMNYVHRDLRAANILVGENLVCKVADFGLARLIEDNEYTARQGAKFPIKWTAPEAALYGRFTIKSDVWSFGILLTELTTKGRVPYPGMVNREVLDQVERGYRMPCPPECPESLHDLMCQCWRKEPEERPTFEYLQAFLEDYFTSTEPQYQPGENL

The following compounds have reported results that may help.
molecule_smiles=COC(=O)c1[nH]c(C(=O)OC)c(-c2c[nH]c3ccccc23)c1-c1c[nH]c2ccccc12 quantity_name=inhibition reported="< 50%"
molecule_smiles=O=C1NCc2c1c1c3ccc(O)cc3[nH]c1c1[nH]c3ccccc3c21 quantity_name=inhibition reported=80%
molecule_smiles=O=C1NC(=O)C(c2c[nH]c3ccccc23)=C1c1c[nH]c2ccccc12 quantity_name=inhibition reported="< 50%"
molecule_smiles=COC(=O)c1[nH]c(C(=O)OC)c(-c2c[nH]c3ccc(O)cc23)c1-c1c[nH]c2ccccc12 quantity_name=inhibition reported="< 50%"

Now consider a different compound.
Quick one: inhibition for O=C1NC(=O)c2c1c1c3ccccc3[nH]c1c1[nH]c3cc(O)c(O)cc3c21 ? < 50%

====

Provide the reported inhibition of each item.
target: cAMP-dependent protein kinase (PKA) (Homo sapiens) (UniProt P22694+P17612+P22612); test: Inhibition of Protein kinase A mediated [gamma-32P]-ATP incorporation at 10 ug/mL; format: protein assay

molecule_smiles=O=C1NCc2c1c1c3ccc(O)cc3[nH]c1c1[nH]c3ccccc3c21 quantity_name=inhibition reported=80%

Go through the items and report each one's inhibition.
1. O=C1NC(=O)C(c2c[nH]c3ccccc23)=C1c1c[nH]c2ccccc12
2. COC(=O)c1[nH]c(C(=O)OC)c(-c2c[nH]c3ccccc23)c1-c1c[nH]c2ccccc12
3. COC(=O)c1[nH]c(C(=O)OC)c(-c2c[nH]c3ccc(O)cc23)c1-c1c[nH]c2ccccc12
4. O=C1NC(=O)c2c1c1c3ccccc3[nH]c1c1[nH]c3cc(O)c(O)cc3c21

1: 80%; 2: < 50%; 3: < 50%; 4: < 50%
